Assay Method Text: in vitro
Condition Parameters: human

Compound: O=C(NCc1ccc(F)cc1F)c1cn2c(c(O)c1=O)C(=O)N1[C@@H]3COC[C@@H](C3)O[C@H]1C2 (racemic)
CC50 at 5 days, µM: 37.2
